# target_under_test: LSD1 (Homo sapiens, UniProt O60341)
Catalogue of IC50 values

Cn1nc2ccc(-n3nc(NC[C@H]4CCC[C@H](N)C4)cc3-c3ccc(C#N)c(F)c3)cc2c1Cl [Example 14SS]: < 500 nM
N#Cc1ccc(-c2cc(NC[C@H]3CCC[C@H](N)C3)nn2-c2ccc(N3CCSCC3)cc2)cc1F: < 500 nM
COc1ccc(-n2nc(NCC3CCCNCC3)cc2-c2ccc(C#N)c(F)c2)cc1 (single isomer, unassigned) [Example 22a]: < 500 nM
CS(=O)(=O)N1CCN(c2cccc(-n3nc(NC[C@H]4CCC[C@H](N)C4)cc3-c3ccc(C#N)c(F)c3)c2)CC1: 1000 to 10000 nM
CC(C)n1cc2cc(-n3nc(NC[C@@H]4CCC[C@@H](N)C4)cc3-c3ccc(C#N)c(F)c3)ccc2n1: 1000 to 10000 nM

*Q* Lab note: need IC50 for COc1cc(N2CCS(=O)(=O)CC2)ccc1-n1nc(NCC23CCN(CC2)CC3)cc1-c1ccc(C#N)c(F)c1 [Example 126, 2,2,2-trifluoroacetate] on LSD1 (Homo sapiens, UniProt O60341), anyone have it?
*A* < 500 nM

*Q* Which IC50 is reported with LSD1 (Homo sapiens, UniProt O60341) for this entry: COc1cc(N2CCC(OC)CC2)ccc1-n1nc(NC[C@H]2CCC[C@H](N)C2)cc1-c1ccc(C#N)c(F)c1 [Example 114, 2,2,2-trifluoroacetate] ?
*A* < 500 nM

====

# Test system: MV4;11 cells
# test_method_notes: Cell Titer-Glo cell growth inhibition in MV4;11 cell line (Day 5 / Day 10)
# Format: cell-based
# condition_description: Day 10, read-out: Cell Titer-Glo IC50 (10 d)
# Experimental: Cell growth inhibition against MV4;11 cells was confirmed for the synthetic compounds. The Cell Titer-Glo Luminescent Cell Viability Assay (Promega, USA) was used to determine the number of viable cells in culture based on quantitation of the ATP present, which signals the presence of metabolically active cells. […] The plates were shaken at room temperature for 10 minutes and measured on a luminescence plate reader. […]
pIC50: −log10 of the molar value.
parameter: pIC50

*Q* Sample COc1ccc(-n2nc(NCC3CCCNCC3)cc2-c2ccc(C#N)c(F)c2)cc1 (single isomer, unassigned) [Example 22b] — what was its pIC50?
*A* > 6.30

*Q* Name the reported pIC50 value associated with the compound COc1ccc(-n2nc(NCC3CC3N)cc2-c2ccc(C#N)c(F)c2)cc1 (single isomer, unassigned) [Example 29b]
*A* > 6.30

====

# target_under_test: LSD1 (Homo sapiens)
pIC50: −log10 of the molar value.
// reported pIC50 for each item listed

These solved cases illustrate the format of a correct answer.
N#Cc1ccc(-c2cc(NC[C@H]3CCC[C@H](N)C3)nn2-c2ccc(-c3cn[nH]c3)cc2)cc1F: > 6.30
Cc1ccc(-n2nc(NC[C@H]3CCC[C@H](N)C3)cc2-c2ccc(C#N)c(F)c2)cc1 [Example 12SS]: > 6.30
N#Cc1ccc(-c2cc(NC[C@H]3CCCNCC3)nn2-c2ccc(N3CCS(=O)(=O)CC3)cc2)cc1F (single isomer, unassigned) [Example 26b]: > 6.30
COc1ccc(-n2nc(NCC3CCNCC3)cc2-c2ccc(C#N)c(F)c2)cc1: > 6.30
Cn1ncc2cc(-n3nc(NC[C@@H]4CN5CCC4CC5)cc3-c3ccc(C#N)c(F)c3)ccc21 (single isomer, unassigned) [Example 31a]: > 6.30
CN[C@@H]1CCCC(CNc2cc(-c3ccc(C#N)c(F)c3)n(-c3ccc(OC)cc3)n2)C1 (single isomer, unassigned) [Example 32b]: 5.00 to 6.00

*Q* Value lookup for pIC50; key = CC1(O)CCN(c2ccc(-n3nc(NC[C@H]4CCC[C@H](N)C4)cc3-c3ccc(C#N)c(F)c3)cc2)CC1 [Example 101, 2,2,2-trifluoroacetate]
*A* > 6.30

*Q* Give the measured pIC50 of COc1ccc(-n2nc(NCC3CC3N)cc2-c2ccc(C#N)c(F)c2)cc1 (single isomer, unassigned) [Example 29b] .
*A* > 6.30

*Q* Reported pIC50 for COC1CCN(c2cccc(-n3nc(NC[C@H]4CCC[C@H](N)C4)cc3-c3ccc(C#N)c(F)c3)c2)CC1 [Example 118, 2,2,2-trifluoroacetate] : what is it?
*A* 5.00 to 6.00

*Q* Which pIC50 is reported for this compound? CO[C@H]1CCCN(c2ccc(-n3nc(NC[C@H]4CCC[C@H](N)C4)cc3-c3ccc(C#N)c(F)c3)cc2)C1 [Example 98, 2,2,2-trifluoroacetate]
*A* > 6.30

*Q* Which pIC50 is listed for N#Cc1ccc(-c2cc(NC[C@@H]3CCCNCC3)nn2-c2ccc(N3CCN(CCO)CC3)cc2)cc1F (single isomer, unassigned) [Example 27a] ?
*A* > 6.30

*Q* Please look up its pIC50: CC(C)Oc1cc(N2CCS(=O)(=O)CC2)ccc1-n1nc(NCC23CCN(CC2)CC3)cc1-c1ccc(C#N)c(F)c1 [Example 122, 2,2,2-trifluoroacetate]
*A* 5.00 to 6.00

*Q* # input compound: COc1ccc(-n2nc(NC[C@H]3CCC[C@H](N)C3)cc2-c2ccc(C#N)c(F)c2)cc1 [Example 11SS] ; wanted: its pIC50
*A* > 6.30
